Target: Adenosine receptor A2a (Rattus norvegicus)
Sequence (P30543 whole entry): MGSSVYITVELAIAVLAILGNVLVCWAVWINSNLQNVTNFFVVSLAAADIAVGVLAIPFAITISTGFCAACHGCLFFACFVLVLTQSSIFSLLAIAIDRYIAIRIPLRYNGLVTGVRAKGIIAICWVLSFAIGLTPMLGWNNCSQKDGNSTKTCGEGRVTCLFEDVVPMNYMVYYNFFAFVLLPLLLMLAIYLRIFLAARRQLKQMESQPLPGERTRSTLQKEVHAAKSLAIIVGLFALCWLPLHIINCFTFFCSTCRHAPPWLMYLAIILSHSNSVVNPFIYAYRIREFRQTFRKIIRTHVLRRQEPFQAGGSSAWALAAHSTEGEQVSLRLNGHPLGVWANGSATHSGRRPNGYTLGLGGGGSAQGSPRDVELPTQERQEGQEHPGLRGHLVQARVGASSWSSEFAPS
Test: Binding affinity against rat adenosine A2A receptor […]
MEASURE: Ki (µM)
Answer format: numeric, µM implied, no suffix.

Need Ki, item Cn1cc2c(nc(NC(=O)Nc3ccncc3)n3nc(-c4ccco4)nc23)n1 0.0976

###

Target: Adenosine receptor A1 (Rattus norvegicus, UniProt P25099)
Sequence (P25099 whole entry): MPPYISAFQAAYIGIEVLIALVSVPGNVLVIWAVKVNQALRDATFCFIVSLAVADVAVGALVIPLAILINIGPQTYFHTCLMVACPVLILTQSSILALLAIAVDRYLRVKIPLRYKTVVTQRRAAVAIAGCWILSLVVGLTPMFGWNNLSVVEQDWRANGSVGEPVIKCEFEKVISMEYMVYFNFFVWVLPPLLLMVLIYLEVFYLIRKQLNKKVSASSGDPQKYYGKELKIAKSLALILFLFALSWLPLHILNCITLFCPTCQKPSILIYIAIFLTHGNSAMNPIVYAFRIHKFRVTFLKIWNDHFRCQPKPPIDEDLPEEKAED
Assay: Binding affinity against rat adenosine A1 receptor […]
MEASURE: pKi
Kindly note that pKi refers to -log10 of the concentration in mol/L and answer with the value alone.

Need pKi, item Cn1cc2c(nc(NC(=O)Nc3ccncc3)n3nc(-c4ccco4)nc23)n1 6.65

FYI, the data here is from ChEMBL document CHEMBL1135541.
